- Tested on: UO-31 renal
- ASSAY_SUMMARY: NCI tumour cell line growth inhibition, 48 h; in the data active = GI50 below about 0.43 µM; inactive = the rest
Outcome codes: active, inactive

>  <COMPOUND>
CCCCNCC(O)c1cc2c(Cl)cc(Cl)cc2c2cc(C(F)(F)F)ccc12 (stereo unspecified)

>  <LABEL_VALUE>
inactive

$$$$
>  <COMPOUND>
COc1ccc2nc(NNC(=O)c3cnccn3)c3cccn3c2c1

>  <LABEL_VALUE>
active

$$$$
>  <COMPOUND>
C=C(C)C(=O)Oc1ccc(N=Nc2ccc(C)cc2)ccc1=O

>  <LABEL_VALUE>
inactive

$$$$
>  <COMPOUND>
[O-]c1ccccc1/C=N/c1nccs1.[O-]c1ccccc1/C=N/c1nccs1.[O]=[U+2]=[O]

>  <LABEL_VALUE>
inactive

$$$$
>  <COMPOUND>
O=S1CCN(Cc2ccc(-c3ccc4ncnc(Nc5ccc(OCc6cccc(F)c6)c(Cl)c5)c4c3)o2)CC1

>  <LABEL_VALUE>
inactive

$$$$
>  <COMPOUND>
Cc1cc2c([nH]1)CSc1cc(S(=O)(=O)c3ccccc3)c(=O)[nH]c1-2

>  <LABEL_VALUE>
inactive

$$$$

---

- Tested on: UACC-62 melanoma
- ASSAY_SUMMARY: NCI tumour cell line growth inhibition, 48 h; in the data active = GI50 below about 0.43 µM; inactive = the rest
Outcome codes: 1 (active), 0 (inactive)

>  <COMPOUND>
CCCC(c1nnnn1C1CCCCC1)N1CCN(C(=O)c2ccco2)CC1 (stereo not given)

>  <SYSTEM_NAME>
UACC-62 melanoma

>  <LABEL_VALUE>
0

$$$$
>  <COMPOUND>
CCN(Cc1ccncc1)c1ccc(CO)c(Cl)c1

>  <SYSTEM_NAME>
UACC-62 melanoma

>  <LABEL_VALUE>
1

$$$$
>  <COMPOUND>
NS(=O)(=O)N(c1cc(C(F)(F)F)cc(C(F)(F)F)c1)C1CCN(Cc2ccc(F)cc2)CC1

>  <SYSTEM_NAME>
UACC-62 melanoma

>  <LABEL_VALUE>
0

$$$$
>  <COMPOUND>
Nc1cc2c([nH]c[n+]2CC#CCCl)c(SCC#CCCl)n1

>  <SYSTEM_NAME>
UACC-62 melanoma

>  <LABEL_VALUE>
0

$$$$
>  <COMPOUND>
Cc1cc2c([nH]1)CSc1cc(S(=O)(=O)c3ccccc3)c(=O)[nH]c1-2

>  <SYSTEM_NAME>
UACC-62 melanoma

>  <LABEL_VALUE>
0

$$$$
>  <COMPOUND>
COc1ccc(CCn2c3c(c4c(O)cccc42)C(=O)c2ccccc2-3)cc1OC

>  <SYSTEM_NAME>
UACC-62 melanoma

>  <LABEL_VALUE>
0

$$$$
>  <COMPOUND>
Cn1cc(-c2nc3c(F)cc4[nH]ncc4c3c3c2CCCC3)c(C(F)(F)F)n1

>  <SYSTEM_NAME>
UACC-62 melanoma

>  <LABEL_VALUE>
0

$$$$
>  <COMPOUND>
COc1ccc2c(c1)C(=O)c1c-2n(CCCCl)c(=O)c2cc(OC)c(OC)cc12

>  <SYSTEM_NAME>
UACC-62 melanoma

>  <LABEL_VALUE>
0

$$$$
>  <COMPOUND>
O=C(CCl)Nc1ccc2c(c1)C(=O)c1ccccc1C2=O

>  <SYSTEM_NAME>
UACC-62 melanoma

>  <LABEL_VALUE>
0

$$$$
>  <COMPOUND>
CCCCNCC(O)c1cc2c(Cl)cc(Cl)cc2c2cc(C(F)(F)F)ccc12 (stereo not given)

>  <SYSTEM_NAME>
UACC-62 melanoma

>  <LABEL_VALUE>
0

$$$$

---

This section presents molecules with their documented TGI values.
- Test system: SN12C renal
- ASSAY_SUMMARY: NCI tumour cell line growth inhibition, 48 h
REPORTED_ENDPOINT: TGI (µM)

>  <MOLECULE>
COc1ccc2c(c1)C(=O)c1c-2n(CCCCl)c(=O)c2cc(OC)c(OC)cc12

>  <UNIT>
µM

>  <READING_QUALIFIER>
>

>  <VALUE_MEASURED>
100

$$$$
>  <MOLECULE>
N#CCCN(CCC#N)CCN(CCN(CCC#N)CCC#N)CCN(CCC#N)CCC#N

>  <UNIT>
µM

>  <READING_QUALIFIER>
>

>  <VALUE_MEASURED>
100

$$$$
>  <MOLECULE>
O=C(CCCn1cnc([N+](=O)[O-])n1)NCCCn1ccnc1[N+](=O)[O-]

>  <UNIT>
µM

>  <READING_QUALIFIER>
>

>  <VALUE_MEASURED>
100

$$$$
>  <MOLECULE>
C/C=C/[C@@H]1[C@H]2C(=O)[C@]3(Cl)[C@@H](/C=C/C)[C@@H]3C(=O)[C@@]12Cl

>  <UNIT>
µM

>  <READING_QUALIFIER>
>

>  <VALUE_MEASURED>
100

$$$$
>  <MOLECULE>
O=C(O)CNC(=O)C(CSC(=O)OCC1c2ccccc2-c2ccccc21)NC(=O)CCC(NC(=O)OCC1c2ccccc2-c2ccccc21)C(=O)O (stereo not given)

>  <UNIT>
µM

>  <READING_QUALIFIER>
=

>  <VALUE_MEASURED>
30.7

$$$$
>  <MOLECULE>
CCOC(=O)NC(Nc1ncn(C(NC(=O)OCC)(C(F)(F)F)C(F)(F)F)n1)(C(F)(F)F)C(F)(F)F

>  <UNIT>
µM

>  <READING_QUALIFIER>
>

>  <VALUE_MEASURED>
100

$$$$
>  <MOLECULE>
CC(=O)c1sc2c(c1OC(=O)c1ccc(Cl)cc1)c(=O)n(-c1ccccc1)c(=S)n2-c1ccccc1

>  <UNIT>
µM

>  <READING_QUALIFIER>
=

>  <VALUE_MEASURED>
6.43

$$$$
>  <MOLECULE>
CN(C)CC1CCC(=C2CCCC2)C1=O (stereo not given)

>  <UNIT>
µM

>  <READING_QUALIFIER>
=

>  <VALUE_MEASURED>
24.9

$$$$
>  <MOLECULE>
COc1ccc(-c2cc(-c3ccccc3)nc(/N=C\c3ccccc3)n2)c(O)c1

>  <UNIT>
µM

>  <READING_QUALIFIER>
>

>  <VALUE_MEASURED>
100

$$$$
>  <MOLECULE>
O=C1C=CC(=O)c2c(O)c(NCCCN3CCOCC3)c(Cl)c(O)c21

>  <UNIT>
µM

>  <READING_QUALIFIER>
=

>  <VALUE_MEASURED>
3.68

$$$$
>  <MOLECULE>
O=C(O)C1(c2ccccc2)CCCNCC1 (stereo not given)

>  <UNIT>
µM

>  <READING_QUALIFIER>
>

>  <VALUE_MEASURED>
100

$$$$
>  <MOLECULE>
C=C(C)C(=O)Oc1ccc(N=Nc2ccc(C)cc2)ccc1=O

>  <UNIT>
µM

>  <READING_QUALIFIER>
=

>  <VALUE_MEASURED>
18.5

$$$$
>  <MOLECULE>
COc1ccccc1N1C(=O)/C(=C\c2cc(OC)c(OC)c(OC)c2)SC1c1ccccc1 (stereo not given)

>  <UNIT>
µM

>  <READING_QUALIFIER>
>

>  <VALUE_MEASURED>
100

$$$$
>  <MOLECULE>
CCCCCCCCc1ccc(OCCOCC[N+](C)(C)CC)cc1 (tested in a mixture with another compound)

>  <UNIT>
µM

>  <READING_QUALIFIER>
=

>  <VALUE_MEASURED>
11.9

$$$$
>  <MOLECULE>
C/C(=N\O)c1ccc2cc(Br)c3ccccc3c2c1

>  <UNIT>
µM

>  <READING_QUALIFIER>
=

>  <VALUE_MEASURED>
48.3

$$$$
>  <MOLECULE>
COc1ccc(/C=C(\C#N)c2nc3ccccc3c(=O)[nH]2)cc1

>  <UNIT>
µM

>  <READING_QUALIFIER>
>

>  <VALUE_MEASURED>
100

$$$$
>  <MOLECULE>
CCN=C1Nc2ccccc2-n2c(nn3nc4ccccc4c23)N1CC

>  <UNIT>
µM

>  <READING_QUALIFIER>
>

>  <VALUE_MEASURED>
100

$$$$
>  <MOLECULE>
O=C(NNC(=O)c1ccccc1O)c1ccccc1O

>  <UNIT>
µM

>  <READING_QUALIFIER>
>

>  <VALUE_MEASURED>
100

$$$$
>  <MOLECULE>
O=C(CNc1cccc(Cl)c1)Nn1c(-c2ccccc2)nc2ccccc2c1=O

>  <UNIT>
µM

>  <READING_QUALIFIER>
=

>  <VALUE_MEASURED>
13.6

$$$$
>  <MOLECULE>
CCC12CCCN3CCc4c(n(c5ccccc45)C(O)(C(=O)OC)C1)C32 (stereo not given)

>  <UNIT>
µM

>  <READING_QUALIFIER>
>

>  <VALUE_MEASURED>
100

$$$$
